- Tested on: BT-549 breast
- assay_protocol: NCI-60 one-dose screen, 48 h
- details: 10 µM unless noted
Compounds without any hit were thinned out: in the full panel of roughly 83,000, 20% have a hit. Calls of active or inactive are those of the source. The calls were made as follows: active = growth percent below 10; inactive = the rest.
Write down the outcome that applies. Available outcomes: active, inactive

Worked examples, 2 molecules total:
O=CNc1ccc2c(c1)Cc1cccc(NC=O)c1-2
inactive
COc1cc2c(cc1-c1c(C)noc1C)ncc1nc(C3CCOCC3)n([C@H](C)COC(F)F)c12
inactive

Write down the call the test reported for this molecule. Item: O=C1OCC2=C1C(c1ccncc1)c1cc3c(cc1N2CCO)OCO3 (centres undefined)
inactive

Write down the call the test reported for this molecule. Item: C(=N/Nc1ncc(-c2cc3cc(-c4ccccc4)ccc3o2)s1)/c1cccs1
inactive

Write down the call the test reported for this molecule. Item: Cn1nc(N)c2cc([C@@H]3Nc4ccc5[nH]ncc5c4[C@H]4C5CCC(C5)[C@@H]34)ccc21 (some centres undefined)
inactive

Write down the call the test reported for this molecule. Item: CC(=O)O[C@H]1C(=O)[C@@]2(C)[C@H]([C@H](OC(=O)c3ccccc3)[C@]3(O)C[C@H](OC(=O)[C@H](OC(=O)CCC(=O)OC4CCC(S/N=C(N)/N=C(\N)N(C)C)CC4)[C@@H](NC(=O)c4ccccc4)c4ccccc4)C(C)=C1C3(C)C)[C@]1(OC(C)=O)CO[C@@H]1C[C@@H]2O (some centres undefined)
inactive

Write down the call the test reported for this molecule. Item: Cn1cc(-c2nonc2-c2c[nH]c3ccc(F)cc23)c2cccnc21
inactive

Write down the call the test reported for this molecule. Item: COC(=O)[C@@H]1CCCN1C(=O)[C@@H]1CCCN1C(=O)[C@H](Cc1ccccc1)NC(=S)Nc1cc(C(F)(F)F)cc(C(F)(F)F)c1
inactive

Write down the call the test reported for this molecule. Item: C#CCOc1ccc2ncnc(NCc3cccc(NC(=O)CCl)c3)c2c1
inactive

Write down the call the test reported for this molecule. Item: COc1cc(/C=C/C(=O)c2c(C)oc3nc[nH]c(=O)c23)cc(OC)c1OC
inactive

Write down the call the test reported for this molecule. Item: O=c1cc(CSc2nnc(-c3ccc(F)cc3)o2)c2ccc3ccccc3c2o1
inactive

Write down the call the test reported for this molecule. Item: COc1ccc(Nc2c3c4c(cccc4[nH]c2=O)C(=O)c2ccccc2-3)cc1
active

Write down the call the test reported for this molecule. Item: CCOc1ccc(-n2nc(C(=O)Nc3ccccc3)nc2-c2cc(OC)c(OC)c(OC)c2)cc1
inactive

Write down the call the test reported for this molecule. Item: CC(C)C[C@@H](NC(=O)[C@@H](Cc1ccccc1)NC(=O)c1cnccn1)B1Oc2ccc(C[C@H](NC(=O)[C@H](Cc3ccc4c(c3)OB([C@@H](CC(C)C)NC(=O)[C@@H](Cc3ccccc3)NC(=O)c3cnccn3)O4)NC(=O)[C@@H](N)CC3CCC4OB([C@@H](CC(C)C)NC(=O)[C@@H](CC5CCCCC5)NC(=O)C5CNCCN5)OC4C3)C(=O)NCCCC[C@@H]3NC(=O)[C@@H](Cc4ccccc4)NC(=O)[C@H](CC(=O)O)NC(=O)CNC(=O)[C@H](CCCNC(=N)N)NC3=O)cc2O1 (some centres undefined)
active

----------
- Test system: SN12C renal
- assay_protocol: NCI-60 one-dose screen, 48 h
- details: 10 µM unless noted
Compounds without any hit were thinned out: in the full panel of roughly 83,000, 20% have a hit. Active and inactive are the calls of the source. How the source made its calls: active means growth percent below 10; inactive means the rest.
Write down the outcome that applies. Available outcomes: active, inactive

Write down the call the test reported for this compound. Item: C=CC(=O)Nc1cccc(-c2nc(SC)nc(NCc3ccccc3)c2C#N)c1
inactive

Write down the call the test reported for this compound. Item: CC1C(/C=N/Nc2ccccc2)C(C#N)(C#N)C1(C#N)C#N (centres undefined)
inactive

Write down the call the test reported for this compound. Item: CCCCn1c(-c2ccc(C(=O)O/N=C(\N)c3ccc4c(c3)OCO4)cc2)nc(-c2ccccc2)c1-c1ccccc1
inactive

Write down the call the test reported for this compound. Item: Nc1ccc(-c2cc3c(NCc4ccccc4)ncnc3s2)cc1
inactive
